Tested on: Staphylococcus aureus
Test: Inhibition of cell division in penicillin-susceptible Staphylococcus aureus ATCC 25923 assessed as lowest concentration required to ballooning after 5 hrs by phase-contrast light microscopy analysis
Type: functional
I'd be grateful if you could share measured INH for these entries.
Answers are plain numbers, in µg/mL.

In [3]: df
Out[3]:
                         smiles_data          tested_system  reading
0  NC(=O)c1cccc(OCCCOc2ccc(Cl)cc2)c1  Staphylococcus aureus      512
1  COc1ccc(OCCCOc2cccc(C(N)=O)c2)cc1  Staphylococcus aureus      512

Q: Entry "NC(=O)c1cccc(OCCCCSc2nc3ccccc3s2)c1" : reported INH = ?
Ans: 512
